Exercise: state measured half-life at 10 μM for each of the compounds provided.
Assay: Metabolic stability assay, human liver microsomes
Assay type: in vitro ADME
Conditions: both sexes, liver microsomes; human microsomes, 10 μM, 1 mg/ml protein, 37° C.; read-out: Metabolic Stability T ½ [min] hum
Report the value in min with no unit label.

Kindly note the recorded half-life at 10 μM for C[C@H]1COc2cccc(c2)-c2cccc(c2)C(=O)N(C)[C@H](C(=O)N2CCOCC2)CCC(=O)N1 , which is 27

The compound listed as CC(C)CNC(=O)[C@@H]1CCC(=O)N[C@@H](C)COc2cccc(c2)-c2cccc(c2)C(=O)N1C shows half-life at 10 μM equal to 19

Looking up C[C@H]1COc2cccc(c2)-c2cccc(c2)C(=O)N(C)[C@H](C(=O)NCc2cccnc2)CCC(=O)N1 , I found its half-life at 10 μM recorded as 21

Short answer for C[C@H]1COc2cccc(c2)-c2cccc(c2)C(=O)N(C)[C@H](C(=O)Nc2ccccc2)CCC(=O)N1 : half-life at 10 μM was 22

Sure, the documented half-life at 10 μM for C[C@H]1COc2cccc(c2)-c2cccc(c2)C(=O)N(C)[C@H](C(=O)NCc2cccc3ccccc23)CCC(=O)N1 is 7

Given item COc1ccc2c(c1)-c1cccc(c1)C(=O)N(C)[C@H](C(=O)NCc1cccc3ccccc13)CCC(=O)N[C@H](C)CO2 , the value recorded as its half-life at 10 μM is 8

Briefly, half-life at 10 μM measured for C[C@H](NC(=O)[C@@H]1CCC(=O)N[C@@H](C)COc2cccc(c2)-c2cccc(c2)C(=O)N1C)c1ccccc1 : 16

Looking up C[C@H]1COc2cccc(c2)-c2cccc(c2)C(=O)N(C)[C@H](C(=O)NCc2ccc3ccccc3c2)CCC(=O)N1 , I found its half-life at 10 μM recorded as 13

Entry COCCNC(=O)[C@@H]1CCC(=O)N[C@@H](C)COc2cccc(c2)-c2cccc(c2)C(=O)N1C , half-life at 10 μM reported as 44

###

Assay: Metabolic stability assay, CD-1 mouse microsomes
Format: in vitro ADME
Conditions: both sexes; CD-1 mouse microsomes, 10 μM, 1 mg/ml protein, 37° C.; read-out: Metabolic Stability T ½ [min] mouse/(rat)
I'd appreciate it if you marked entries Yes when half-life at 10 μM is lower than 20 min and No when it is not.

In the record for CNC(=O)[C@@H]1CCC(=O)N[C@H](C)COc2ccc(OC)cc2-c2cccc(c2)C(=O)N1C , is half-life at 10 μM less than 20 min?
No

Report whether reported half-life at 10 μM is lower than 20 min (strictly) for C[C@H](NC(=O)[C@@H]1CCC(=O)N[C@@H](C)COc2cccc(c2)-c2cccc(c2)C(=O)N1C)c1ccccc1
Yes

A record lists C[C@H]1COc2cccc(c2)-c2cccc(c2)C(=O)N(C)[C@H](C(N)=O)CCC(=O)N1 . Is its half-life at 10 μM below 20 min?
No

A record lists C[C@H]1COc2cccc(c2)-c2cccc(c2)C(=O)N(C)[C@H](C(=O)N2CCC2)CCC(=O)N1 . Is its half-life at 10 μM below 20 min?
No

# strict comparison: is reported half-life at 10 μM < 20 min? input = C[C@H]1COc2cccc(c2)-c2cccc(c2)C(=O)N(C)[C@H](C(=O)NC2CC2)CCC(=O)N1
No

In plain terms, does C[C@H]1COc2cccc(c2)-c2cccc(c2)C(=O)N(C)[C@H](C(=O)NCc2ccc3ccccc3c2)CCC(=O)N1 come in under 20 min for half-life at 10 μM?
Yes

Problem: For the compound CC(C)CNC(=O)[C@@H]1CCC(=O)N[C@@H](C)COc2cccc(c2)-c2cccc(c2)C(=O)N1C , is half-life at 10 μM under 20 min?
No

Field: below-cutoff. Rule: recorded half-life at 10 μM strictly less than 20 min. Subject: COc1ccc2c(c1)-c1cccc(c1)C(=O)N(C)[C@H](C(=O)NCCN(C)C)CCC(=O)N[C@H](C)CO2
No

Please let me know if COc1ccc2c(c1)-c1cccc(c1)C(=O)N(C)[C@H](C(=O)O)CCC(=O)N[C@H](C)CO2 shows half-life at 10 μM below 20 min.
No

Please let me know if C[C@H]1COc2cccc(c2)-c2cccc(c2)C(=O)N(C)[C@H](C(=O)N2CCOCC2)CCC(=O)N1 shows half-life at 10 μM below 20 min.
No

I wonder whether COc1ccc2c(c1)-c1cccc(c1)C(=O)N(C)[C@H](C(=O)NCc1cccc3ccccc13)CCC(=O)N[C@H](C)CO2 has half-life at 10 μM below 20 min. Can you tell?
No

Lab note: confirm whether the reported half-life at 10 μM for this compound is below 20 min, equality not counting. compound: C[C@H]1COc2cccc(c2)-c2cccc(c2)C(=O)N(C)[C@H](C(=O)O)CCC(=O)N1
No
